Recorded DC50 by entry
target_system: androgen receptor (AR) splicing variant AR-v7 (Homo sapiens)
Construct: The degradation activity of compounds on AR-v7 in 22RV1 cells; host or cells: 22RV1 cells
Sequence (P10275 1-644 isoform P10275-3): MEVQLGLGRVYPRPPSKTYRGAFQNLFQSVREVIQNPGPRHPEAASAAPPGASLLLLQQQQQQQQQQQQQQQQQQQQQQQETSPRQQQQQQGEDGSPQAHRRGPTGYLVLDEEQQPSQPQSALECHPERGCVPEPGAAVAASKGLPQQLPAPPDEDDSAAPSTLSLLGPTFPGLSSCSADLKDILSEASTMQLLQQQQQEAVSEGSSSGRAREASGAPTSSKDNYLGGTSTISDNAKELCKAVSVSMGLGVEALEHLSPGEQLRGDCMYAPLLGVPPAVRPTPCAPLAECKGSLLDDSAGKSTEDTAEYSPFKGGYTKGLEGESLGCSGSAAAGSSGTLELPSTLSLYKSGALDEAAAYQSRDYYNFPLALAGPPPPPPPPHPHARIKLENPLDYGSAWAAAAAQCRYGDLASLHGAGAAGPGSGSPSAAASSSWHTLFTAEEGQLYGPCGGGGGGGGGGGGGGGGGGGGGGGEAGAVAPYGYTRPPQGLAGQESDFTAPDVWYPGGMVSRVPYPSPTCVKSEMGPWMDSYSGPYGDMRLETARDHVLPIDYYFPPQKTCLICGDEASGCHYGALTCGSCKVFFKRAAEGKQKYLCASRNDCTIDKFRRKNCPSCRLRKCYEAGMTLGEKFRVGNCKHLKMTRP
method_summary: Degradation activity on androgen receptor splicing variant AR-v7 in 22RV1 cells (ELISA)
Assay type: cell-based
condition_notes: AR-v7 degradation in 22RV1 cells, 48 h, class symbols
measured_endpoint: DC50

compound | readout_value
CC(C)(c1ccc(OCc2ccnc(N3CC[C@H](O)C3)n2)cc1)c1ccc(OC2CC(Nc3ccc4c(c3)C(=O)N(C3CCC(=O)NC3=O)C4=O)C2)cc1 (stereo partly shown) | < 10 nM
CC(O)c1ncc(Oc2ccc(C(C)(C)c3ccc(O[C@H]4C[C@@H](Nc5ccc6c(c5)C(=O)N(C5CCC(=O)NC5=O)C6=O)C4)cc3)cc2)cn1 (stereo partly shown) | 11 to 100 nM
Cn1cc(-c2cccc(COc3ccc(C(C)(C)c4ccc(O[C@H]5C[C@@H](Nc6ccc7c(c6)C(=O)N(C6CCC(=O)NC6=O)C7=O)C5)cc4)cc3)n2)cn1 (stereo partly shown) | 11 to 100 nM
CC(=O)c1nccc(Oc2ccc(C(C)(C)c3ccc(O[C@H]4C[C@H](Nc5ccc6c(c5)C(=O)N(C5CCC(=O)NC5=O)C6=O)C4)cc3)cc2)n1 (stereo partly shown) | < 10 nM
Cc1nc(-c2nccc(COc3ccc(C(C)(C)c4ccc(O[C@H]5C[C@@H](Nc6ccc7c(c6)C(=O)N(C6CCC(=O)NC6=O)C7=O)C5)cc4)cc3)n2)no1 (stereo partly shown) | < 10 nM
CC(C)(c1ccc(Oc2nc(-n3ccnn3)ccc2F)cc1)c1ccc(O[C@H]2C[C@H](Nc3ccc4c(c3)C(=O)N(C3CCC(=O)NC3=O)C4=O)C2)cc1 (stereo partly shown) | 11 to 100 nM
Cc1nc(-c2ccc(Oc3ccc(C(C)(C)c4ccc(O[C@H]5C[C@@H](Nc6ccc7c(c6)C(=O)N(C6CCC(=O)NC6=O)C7=O)C5)cc4)cc3)cn2)no1 (stereo partly shown) [Example 587] | 11 to 100 nM
CN1C(=O)CCC(N2C(=O)c3ccc(N[C@H]4C[C@H](Oc5ccc(C(C)(C)c6ccc(OCc7ccnc(N8CC9(COC9)C8)n7)cc6)cc5)C4)cc3C2=O)C1=O (stereo partly shown) | 101 to 1000 nM
Cc1nc(-c2cccc(Oc3ccc(C(C)(C)c4ccc(O[C@H]5C[C@H](Nc6ccc7c(c6)C(=O)N(C6CCC(=O)NC6=O)C7=O)C5)cc4)cc3)n2)no1 (stereo partly shown) | < 10 nM
CC(C)(c1ccc(OCCCNc2cccc3c2C(=O)N(C2CCC(=O)NC2=O)C3=O)cc1)c1ccc(OCc2nc3ncccc3o2)cc1 (stereo not shown) | 11 to 100 nM
CC(C)(c1ccc(Oc2cnc(N3CC4(COC4)C3)nc2)cc1)c1ccc(O[C@H]2C[C@H](Nc3ccc4c(c3)C(=O)N(C3CCC(=O)NC3=O)C4=O)C2)cc1 (stereo partly shown) | < 10 nM
Cc1nc(-c2cc(Oc3ccc(C(C)(C)c4ccc(O[C@H]5C[C@H](Nc6ccc7c(c6)C(=O)N(C6CCC(=O)NC6=O)C7=O)C5)cc4)cc3)ncn2)no1 (stereo partly shown) | < 10 nM
CC(=O)c1nccc(COc2ccc(C(C)(C)c3ccc(N4CC5(CCN(c6ccc7c(c6)C(=O)N(C6CCC(=O)NC6=O)C7=O)CC5)C4)cc3)cc2)n1 (stereo not shown) | 1000 to 5000 nM
CC(C)(c1ccc(OCc2ccnc(N3CC4(COC4)C3)n2)cc1)c1ccc(C(=O)Nc2ccc3c(c2)C(=O)N(C2CCC(=O)NC2=O)C3=O)cc1 (stereo not shown) | 101 to 1000 nM
CC(O)c1ccc(Oc2ccc(C(C)(C)c3ccc(O[C@H]4C[C@H](Nc5ccc6c(c5)C(=O)N(C5CCC(=O)NC5=O)C6=O)C4)cc3)cc2)cn1 (stereo partly shown) | < 10 nM
CC(C)(c1ccc(OCCCNc2ccc3c(c2)C(=O)N(C2CCC(=O)NC2=O)C3=O)cc1)c1ccc(OCc2ccnc(C(N)=O)n2)cc1 (stereo not shown) | 11 to 100 nM
Cc1nnc(-c2ccnc(Oc3ccc(C(C)(C)c4ccc(O[C@H]5C[C@H](Nc6ccc7c(c6)C(=O)N(C6CCC(=O)NC6=O)C7=O)C5)cc4)cc3)c2)o1 (stereo partly shown) | 11 to 100 nM
CC(O)c1cnc(Oc2ccc(C(C)(C)c3ccc(O[C@H]4C[C@H](Nc5ccc6c(c5)C(=O)N(C5CCC(=O)NC5=O)C6=O)C4)cc3)cc2)cn1 (stereo partly shown) | < 10 nM
CC(C)(c1ccc(OCc2cnc(N3CC4(COC4)C3)nc2)cc1)c1ccc(O[C@H]2C[C@H](Nc3ccc4c(c3)C(=O)N(C3CCC(=O)NC3=O)C4=O)C2)cc1 (stereo partly shown) | 11 to 100 nM
CNC(=O)c1nccc(COc2ccc(C(C)(C)c3ccc(OCCCNc4ccc5c(c4)C(=O)N(C4CCC(=O)NC4=O)C5=O)cc3)cc2)n1 (stereo not shown) | 11 to 100 nM
CC(=O)c1ccc(Oc2ccc(C(C)(C)c3ccc(O[C@H]4C[C@@H](Nc5ccc6c(c5)C(=O)N(C5CCC(=O)NC5=O)C6=O)C4)cc3)cc2)nn1 (stereo partly shown) | < 10 nM
CC(c1ccc(Oc2cnc(-n3nccn3)nc2)cc1)c1ccc(O[C@H]2C[C@H](Nc3ccc4c(c3)C(=O)N(C3CCC(=O)NC3=O)C4=O)C2)cc1 (stereo partly shown) | < 10 nM
